Form field: IC50 (one value per entry).
System: coronary artery of the dog
Assay: Contraction-inhibiting activity on the coronary artery of the dog (in vitro)
Assay type: cell-based
Settings: Canis lupus familiaris, 0.25 h, contraction induced by 100 mM potassium ions, reactivation with 10 and 20 mM calcium ions, 15-minute action, read-out: ED50 (dose capable of inhibiting 50% of the maximum contraction)
The answer is to be given in µM; state only the numeric part.

Reference set, count: 6
- compound: "COc1ccc2c(c1)C(CCCN1CCc3cc(OC)c(OC)cc3C1)(c1ccccc1)CO2 (centres unmarked)"
  targetSystem: "coronary artery of the dog"
  readoutNumber: 6.3
- compound: "COc1ccc(CCN(C)CCCC2(c3ccccc3)COc3ccc(Cl)cc32)cc1OC (centres unmarked)"
  targetSystem: "coronary artery of the dog"
  readoutNumber: 30
- compound: "COc1ccc2c(c1)C(CCCN(C)CCc1ccccc1)(c1ccccc1)CO2 (centres unmarked)"
  targetSystem: "coronary artery of the dog"
  readoutNumber: 8.4
- compound: "COc1ccc(CCN(C)CCCC2(c3ccccc3)COc3cc(OC)c(OC)cc32)cc1OC (centres unmarked)"
  targetSystem: "coronary artery of the dog"
  readoutNumber: 90
- compound: "CCN(CC)CCCC1(c2ccccc2)COc2ccc(OC)cc21 (centres unmarked)"
  targetSystem: "coronary artery of the dog"
  readoutNumber: 6.1
- compound: "COc1ccc2c(c1)C(CCCN(C)C1Cc3cc(OC)c(OC)cc3C1)(c1ccccc1)CO2 (centres unmarked)"
  targetSystem: "coronary artery of the dog"
  readoutNumber: 10

Fill in: IC50 of COc1ccc(CCN(C)CCCC2(c3ccccc3)c3cc(OC)c(OC)cc3OC2O)cc1OC (centres unmarked) [Example 12, phosphate] is ___ 8

Query (compound): COc1ccc2c(c1)C(CCCN(C)CCc1ccc(OC)c(OC)c1)(c1ccccc1)CO2.O=P(O)(O)O (centres unmarked) [Example 1, phosphate] ; field requested: IC50 1.7

====

Tested on: coronary artery of the dog
Assay: Contraction-inhibiting activity on the coronary artery of the dog (in vitro)
Assay type: cell-based
Details: Canis lupus familiaris, 0.25 h, contraction induced by 100 mM potassium ions, reactivation with 10 and 20 mM calcium ions, 15-minute action, read-out: ED50 (dose capable of inhibiting 50% of the maximum contraction)
testReadout: pIC50
Scale for pIC50: -log10 of concentration given in mol/L; no unit attached.

- compound: "COc1ccc2c(c1)C(CCCN(C)CCc1ccc(OC)c(OC)c1)(c1ccc(C)cc1)CO2 (centres unmarked) [Example 5]"
  pIC50: 4.59
- compound: "c1ccc(C2(CCCN3CCc4ccsc4C3)COc3ccccc32)cc1 (centres unmarked) [Example 14]"
  pIC50: 5.05
- compound: "COc1ccc2c(c1)C(CCCN1CCN(C)CC1)(c1ccccc1)CO2 (centres unmarked) [Example 9]"
  pIC50: 4.46
- compound: "COc1cccc(N2CCN(CCCC3(c4ccccc4)COc4ccccc43)CC2)c1 (centres unmarked) [Example 16]"
  pIC50: 5.05
- compound: "COc1ccc(CCN(C)CCCC2(c3ccccc3)COc3ccccc32)cc1OC.O=P(O)(O)O (centres unmarked) [Example 13, phosphate]"
  pIC50: 5.40
- compound: "c1ccc(C2(CCCN3CCOCC3)COc3ccccc32)cc1 (centres unmarked) [Example 15]"
  pIC50: 4.30

What value of pIC50 on coronary artery of the dog does COc1cccc(N2CCN(CCCC3(c4ccccc4)COc4ccc(Cl)cc43)CC2)c1 (centres unmarked) [Example 2] have? 5.00

Give coronary artery of the dog pIC50 for COc1ccc2c(c1)C(CCCN(C)CCc1ccc(OC)c(OC)c1)(c1ccccc1)C(O)O2 (centres unmarked) [Example 11, phosphate] 5.21

Where these numbers come from: patent US4727086A
